All values here come from patent US10093664B2.

So I've got a bunch of molecules here, and I need their pKd values.
- Tgt: human DLK (Homo sapiens (Human), UniProt Q12852)
- Test: biochemical
- Assay type: binding
- Stated Conditions: Table 2b DLK activity (global); read-out: Kd
Remember, pKd is on a log scale: it is -log10 of the molar concentration.

IN: # value lookup — system human DLK (Homo sapiens (Human), UniProt Q12852), readout pKd, item CCCN1CCN(C23CC(n4cc(-c5cnc(N)c(OC(F)(F)F)c5)nc4[C@@H](O)C(C)C)(C2)C3)CC1
OUT: 9.51

IN: # value lookup — system human DLK (Homo sapiens (Human), UniProt Q12852), readout pKd, item Nc1ncc(-c2cn(C34CC(N5CCOCC5)(C3)C4)c(C3CC3)n2)cc1C(F)(F)F
OUT: 8.08

IN: # value lookup — system human DLK (Homo sapiens (Human), UniProt Q12852), readout pKd, item CN1CCN(C23CC(n4cc(-c5cnc(N)c(OC(F)(F)F)c5)nc4C4CC4)(C2)C3)C(=O)C1
OUT: 7.77

IN: # value lookup — system human DLK (Homo sapiens (Human), UniProt Q12852), readout pKd, item Nc1ncc(-c2cn(C34CC(N5CCOCC5)(C3)C4)c(C(O)C(F)(F)F)n2)cc1C(F)(F)F (single isomer, unassigned) [Example 69a]
OUT: 9.44

----------
So I've got a bunch of compounds here, and I need their pIC50 values.
- Tgt: human DLK (Homo sapiens (Human), UniProt Q12852)
- Test: cell-based
- Stated Conditions: Table 2b (global); additional assay runs on multiple batches, includes Table 2a data in the averaging; p-cJun (Ser63), HEK293; read-out: Cell IC50
Remember, pIC50 is on a log scale: it is -log10 of the molar concentration.

IN: Suppose we examine the compound C#CCN1CCN(C23CC(n4cc(-c5cnc(N)c(OC(F)(F)F)c5)nc4[C@H](O)C(C)C)(C2)C3)CC1 (single isomer, unassigned) [Example 9b] ; what pIC50 value has been reported?
OUT: 6.16

IN: Suppose we examine the compound Nc1ncc(-c2cn(C34CC(N5CCOCC5)(C3)C4)c(C3CCOC3)n2)cc1OC(F)(F)F (stereo not drawn) [Example 30] ; what pIC50 value has been reported?
OUT: 5.29

IN: Suppose we examine the compound Nc1ncc(-c2cn(C34CC(N5CCC(O)CC5)(C3)C4)c(C3CC3)n2)cc1OC(F)(F)F [Example 26] ; what pIC50 value has been reported?
OUT: 6.42

IN: Suppose we examine the compound Nc1ncc(-c2cn(C34CC(C3)C4)c([C@@H](O)C(F)(F)F)n2)cc1C(F)(F)F (single isomer, unassigned) [Example 6b] ; what pIC50 value has been reported?
OUT: 7.41

IN: Suppose we examine the compound CC(C)(C)Cc1nc(-c2cnc(N)c(OC(F)(F)F)c2)cn1C12CC(N3CCOCC3)(C1)C2 [Example 39] ; what pIC50 value has been reported?
OUT: 5.39

IN: Suppose we examine the compound CC(C)C(O)c1nc(-c2cnc(N)c(OC(F)(F)F)c2)cn1C12CC(C1)C2 (stereo not drawn) [Example 57] ; what pIC50 value has been reported?
OUT: 7.41

IN: Suppose we examine the compound CC(C)c1nc(-c2cnc(N)c(C(F)(F)F)c2)cn1C12CC(C1)C2 [Example 52] ; what pIC50 value has been reported?
OUT: 6.07

IN: Suppose we examine the compound CC(O)c1nc(-c2cnc(N)c(OC(F)(F)F)c2)cn1C12CC(C1)C2 (stereo not drawn) [Example 55] ; what pIC50 value has been reported?
OUT: 6.35

IN: Suppose we examine the compound CC(C)c1nc(-c2cnc(N)c(OC(F)F)c2)cn1C12CC(N3CCOCC3)(C1)C2 [Example 38] ; what pIC50 value has been reported?
OUT: 6.15

IN: Suppose we examine the compound FC(F)(F)c1c[nH]c2ncc(-c3cn(C45CC(N6CCOCC6)(C4)C5)c(C4CC4)n3)cc12 [Example 18] ; what pIC50 value has been reported?
OUT: 6.81

IN: Suppose we examine the compound CCC(C)c1nc(-c2cnc(N)c(OC(F)(F)F)c2)cn1C12CC(N3CCOCC3)(C1)C2 (stereo not drawn) [Example 49] ; what pIC50 value has been reported?
OUT: 6.54

IN: Suppose we examine the compound Nc1ncc(-c2cn(C34CC(N5CCOCC5)(C3)C4)c(C(O)C(F)(F)F)n2)cc1C(F)(F)F (single isomer, unassigned) [Example 69b] ; what pIC50 value has been reported?
OUT: 6.14

IN: Suppose we examine the compound C#CCN1CCN(C23CC(n4cc(-c5cnc(N)c(OC(F)(F)F)c5)nc4[C@@H](O)C(C)C)(C2)C3)CC1 (single isomer, unassigned) [Example 9a] ; what pIC50 value has been reported?
OUT: 7.69

IN: Suppose we examine the compound Nc1ncc(-c2cn(C34CC(N5CCCCC5)(C3)C4)c(C3CC3)n2)cc1OC(F)(F)F [Example 19] ; what pIC50 value has been reported?
OUT: 6.22

IN: Suppose we examine the compound CCC(O)c1nc(-c2cnc(N)c(OC(F)(F)F)c2)cn1C12CC(C1)C2 (stereo not drawn) [Example 54] ; what pIC50 value has been reported?
OUT: 6.50

----------
- Tgt: human DLK (Homo sapiens (Human), UniProt Q12852)
- Test: biochemical
- Assay type: binding
- Stated Conditions: Table 2b DLK activity (global); read-out: Kd
Outcome Measure: Kd (nM)
Record the value in nM, omitting the unit from your answer.

IN: Suppose we examine the compound Nc1ncc(-c2cn(C34CC(N5CCCCC5)(C3)C4)c(C3CC3)n2)cc1OC(F)(F)F ; what Kd value has been reported?
OUT: 14

IN: Suppose we examine the compound Nc1ncc(-c2cn(C34CC(N5CCOCC5)(C3)C4)c(C3CC3)n2)cc1OC(F)F ; what Kd value has been reported?
OUT: 19

IN: Suppose we examine the compound CC(C)c1nc(-c2cnc(N)c(C(F)(F)F)c2)cn1C12CC(C1)C2 ; what Kd value has been reported?
OUT: 49

IN: Suppose we examine the compound CC(C)C(O)c1nc(-c2cnc(N)c(OC(F)(F)F)c2)cn1C12CC(C1)C2 (stereo not shown) ; what Kd value has been reported?
OUT: 0.62

IN: Suppose we examine the compound COCCN(C)C12CC(n3cc(-c4cnc(N)c(OC(F)(F)F)c4)nc3C3CC3)(C1)C2 ; what Kd value has been reported?
OUT: 6.8

IN: Suppose we examine the compound CC(C)c1nc(-c2cnc(N)c(OC(F)F)c2)cn1C12CC(N3CCOCC3)(C1)C2 ; what Kd value has been reported?
OUT: 19

IN: Suppose we examine the compound CC(C)Cc1nc(-c2cnc(N)c(OC(F)(F)F)c2)cn1C12CC(N3CCOCC3)(C1)C2 ; what Kd value has been reported?
OUT: 15

IN: Suppose we examine the compound Nc1ncc(-c2cn(C34CC(N5CCOCC5)(C3)C4)c(C3CCOC3)n2)cc1OC(F)(F)F (stereo not shown) ; what Kd value has been reported?
OUT: 390

IN: Suppose we examine the compound CCC(O)c1nc(-c2cnc(N)c(OC(F)(F)F)c2)cn1C12CC(C1)C2 (stereo not shown) ; what Kd value has been reported?
OUT: 11

IN: Suppose we examine the compound FCCn1ccc2ncc(-c3cn(C45CC(N6CCOCC6)(C4)C5)c(C4CC4)n3)cc21 [Example 21, bis(2,2,2-trifluoroacetate)] ; what Kd value has been reported?
OUT: 330

IN: Suppose we examine the compound CN1CCN(C23CC(n4cc(-c5cnc(N)c(OC(F)F)c5)nc4CC4CC4)(C2)C3)CC1 ; what Kd value has been reported?
OUT: 18

IN: Suppose we examine the compound CC(C)(C)Cc1nc(-c2cnc(N)c(C(F)(F)F)c2)cn1C12CC(N3CCOCC3)(C1)C2 ; what Kd value has been reported?
OUT: 66

IN: Suppose we examine the compound C[C@H](O)c1nc(-c2cnc(N)c(C(F)(F)F)c2)cn1C12CC(C1)C2 ; what Kd value has been reported?
OUT: 9.7

IN: Suppose we examine the compound Nc1ncc(-c2cn(C34CC(N5CCOCC5)(C3)C4)c(C3COC3)n2)cc1OC(F)(F)F ; what Kd value has been reported?
OUT: 170

IN: Suppose we examine the compound CS(=O)(=O)N1CCN(C23CC(n4cc(-c5cnc(N)c(OC(F)(F)F)c5)nc4C4CC4)(C2)C3)CC1 ; what Kd value has been reported?
OUT: 24

IN: Suppose we examine the compound Nc1ncc(-c2cn(C34CC(N5CCOCC5)(C3)C4)c(C3CCCC3)n2)cc1OC(F)(F)F ; what Kd value has been reported?
OUT: 53

----------
So I've got a bunch of compounds here, and I need their IC50 values.
- Tgt: human DLK (Homo sapiens (Human))
- Test: cell-based
- Stated Conditions: Table 2b (global); additional assay runs on multiple batches, includes Table 2a data in the averaging; p-cJun (Ser63), HEK293; read-out: Cell IC50
Record the value in nM, omitting the unit from your answer.

IN: Suppose we examine the compound Nc1ncc(-c2cn(C34CC(N5CCOCC5)(C3)C4)c(CC3CC3)n2)cc1OC(F)F ; what IC50 value has been reported?
OUT: 500

IN: Suppose we examine the compound Nc1ncc(-c2cn(C34CC(N5CCOCC5)(C3)C4)c(C3CC3)n2)cc1OC(F)F ; what IC50 value has been reported?
OUT: 351

IN: Suppose we examine the compound Nc1ncc(-c2cn(C34CC(N5CCOCC5)(C3)C4)c([C@@H](O)C(F)(F)F)n2)cc1OC(F)(F)F (single isomer, unassigned) ; what IC50 value has been reported?
OUT: 284

IN: Suppose we examine the compound c1cc2ncc(-c3cn(C45CC(N6CCOCC6)(C4)C5)c(C4CC4)n3)cc2[nH]1 ; what IC50 value has been reported?
OUT: 12000

IN: Suppose we examine the compound N#CC1(c2nc(-c3cnc(N)c(OC(F)(F)F)c3)cn2C23CC(N4CCOCC4)(C2)C3)CC1 ; what IC50 value has been reported?
OUT: 531

IN: Suppose we examine the compound Nc1ncc(-c2cn(C34CC(N5CCOCC5)(C3)C4)c(C3COC3)n2)cc1OC(F)(F)F ; what IC50 value has been reported?
OUT: 2570

IN: Suppose we examine the compound Nc1ncc(-c2cn(C34CC(N5CCOCC5)(C3)C4)c(C3CCCO3)n2)cc1OC(F)(F)F (stereo not shown) ; what IC50 value has been reported?
OUT: 518

IN: Suppose we examine the compound Nc1ncc(-c2cn(C34CC(C3)C4)c(CO)n2)cc1C(F)(F)F ; what IC50 value has been reported?
OUT: 846

IN: Suppose we examine the compound CN1CCN(C23CC(n4cc(-c5cnc(N)c(OC(F)(F)F)c5)nc4C4CC4)(C2)C3)C(=O)C1 ; what IC50 value has been reported?
OUT: 471

IN: Suppose we examine the compound C[C@H](O)c1nc(-c2cnc(N)c(C(F)(F)F)c2)cn1C12CC(C1)C2 ; what IC50 value has been reported?
OUT: 207
